Target: ATP-binding cassette sub-family C member 2 (Homo sapiens, UniProt Q92887)
Sequence (Q92887 whole entry): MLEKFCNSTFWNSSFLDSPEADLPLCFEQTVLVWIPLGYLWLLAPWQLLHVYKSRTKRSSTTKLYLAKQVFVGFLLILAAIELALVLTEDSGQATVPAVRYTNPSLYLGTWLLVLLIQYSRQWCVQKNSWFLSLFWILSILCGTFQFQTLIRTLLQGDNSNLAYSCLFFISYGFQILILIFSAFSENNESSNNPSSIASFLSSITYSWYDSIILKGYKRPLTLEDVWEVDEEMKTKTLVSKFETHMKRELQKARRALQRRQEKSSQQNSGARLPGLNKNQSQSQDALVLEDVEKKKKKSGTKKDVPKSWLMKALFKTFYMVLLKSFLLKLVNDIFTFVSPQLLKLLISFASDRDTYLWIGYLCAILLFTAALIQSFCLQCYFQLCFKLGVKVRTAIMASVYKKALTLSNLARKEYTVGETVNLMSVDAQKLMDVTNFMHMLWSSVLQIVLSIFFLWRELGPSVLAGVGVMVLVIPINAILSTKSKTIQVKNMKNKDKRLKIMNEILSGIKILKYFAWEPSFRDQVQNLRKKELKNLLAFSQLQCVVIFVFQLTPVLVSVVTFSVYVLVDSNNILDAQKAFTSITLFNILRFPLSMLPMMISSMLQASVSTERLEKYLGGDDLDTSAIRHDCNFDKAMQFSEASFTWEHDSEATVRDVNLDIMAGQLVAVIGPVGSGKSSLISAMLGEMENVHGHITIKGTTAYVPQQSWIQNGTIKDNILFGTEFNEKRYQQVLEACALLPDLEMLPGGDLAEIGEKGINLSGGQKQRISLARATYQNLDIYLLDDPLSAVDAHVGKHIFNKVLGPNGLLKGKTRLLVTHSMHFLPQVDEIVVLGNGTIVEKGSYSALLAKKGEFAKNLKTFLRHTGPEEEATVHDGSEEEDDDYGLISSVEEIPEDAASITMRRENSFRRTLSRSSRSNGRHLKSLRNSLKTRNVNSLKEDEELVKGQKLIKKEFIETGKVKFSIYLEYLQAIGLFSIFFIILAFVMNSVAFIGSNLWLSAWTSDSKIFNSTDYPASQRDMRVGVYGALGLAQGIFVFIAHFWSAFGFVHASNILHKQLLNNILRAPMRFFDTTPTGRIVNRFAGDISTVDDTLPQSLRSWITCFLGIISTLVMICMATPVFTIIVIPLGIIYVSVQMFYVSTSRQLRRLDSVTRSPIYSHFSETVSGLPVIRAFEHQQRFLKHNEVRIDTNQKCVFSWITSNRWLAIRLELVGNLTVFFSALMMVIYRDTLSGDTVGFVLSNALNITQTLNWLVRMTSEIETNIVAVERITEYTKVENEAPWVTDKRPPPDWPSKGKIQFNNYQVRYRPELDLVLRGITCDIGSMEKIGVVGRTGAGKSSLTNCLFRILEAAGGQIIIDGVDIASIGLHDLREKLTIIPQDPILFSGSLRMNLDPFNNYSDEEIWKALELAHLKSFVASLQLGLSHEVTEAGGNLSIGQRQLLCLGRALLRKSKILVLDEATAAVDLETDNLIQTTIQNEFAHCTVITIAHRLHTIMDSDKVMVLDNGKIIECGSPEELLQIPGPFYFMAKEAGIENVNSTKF
Test: TP_TRANSPORTER: inhibition of PAH uptake (PAH: 0.1uM) in membrane vesicles from MRP2-expressing HEK cells
experimental readout: IC50 (µM)
Output spec: scalar in µM, unitless text.

Provide one value: measured IC50 of CN(C)C(=O)CCSC(SCCC(=O)O)c1cccc(/C=C/c2ccc3ccc(Cl)cc3n2)c1 (stereo not drawn)
4

Answer with the recorded IC50 for the compound listed here: C[C@@H]1Cc2c(Cl)cc(C(=O)N[C@@H](Cc3ccccc3)C(=O)O)c(O)c2C(=O)O1 [3R14S-OCHRATOXIN A]
58

Specify reported IC50 for the compound shown: CCCCC/C=C\C\C=C/C=C/C=C/[C@@H](SC[C@@H](NC(=O)CC[C@H](N)C(=O)O)C(=O)NCC(=O)O)[C@@H](O)CCCC(=O)O
3.3

Data origin: ChEMBL document CHEMBL2074311
